- tested.target: IL-17A/A (Homo sapiens)
- Construct: purchased Genscript Z03228
- Sequence (Q16552 24-155): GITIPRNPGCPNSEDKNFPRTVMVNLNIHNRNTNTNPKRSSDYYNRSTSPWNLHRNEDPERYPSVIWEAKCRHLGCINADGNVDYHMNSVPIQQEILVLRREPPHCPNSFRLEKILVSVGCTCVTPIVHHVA
- protocol.notes: IL-17A/A HEK-Blue Cell Assay
- Format: cell-based
- reported.conditions: HEK-Blue IL-17A reporter cell line, SEAP readout at A630, 20 hours incubation with IL-17A/A; top concentration 10 uM, 1 uM or 0.3 uM; read-out: IL-17A/A inhibition (pIC50) (converted)
Listing of entries alongside the reported IC50.

- molecule: "CCC(=O)N[C@H](Cc1ccc(NC(=O)[C@@H](NC(=O)c2ccnn2C(C)C)C2CCC(F)(F)CC2)c(F)c1)C(=O)N1CCN(C)CC1"
  tested.target: "IL-17A/A (Homo sapiens)"
  IC50: "100 to 10000 nM"
- molecule: "CCC(=O)N[C@@H](C(=O)N1CCN(C)C[C@H]1C)[C@@H](C)c1ccc(NC(=O)[C@@H](NC(=O)c2ccnn2CC)[C@H]2CC[C@H](C)CC2)c(F)c1"
  tested.target: "IL-17A/A (Homo sapiens)"
  IC50: "< 10 nM"
- molecule: "CCC(=O)N[C@@H](C(=O)N1CCN(C)CC1)[C@@H](C)c1ccc(NC(=O)C(NC(=O)c2ccnn2CC)[C@H](C)c2ccccc2)c(F)c1 (stereo partly shown)"
  tested.target: "IL-17A/A (Homo sapiens)"
  IC50: "10 to 100 nM"

Next molecule, please.
Query :: Give the value of IC50 reported for the following: CCC(=O)N[C@@H](C(=O)N1CCC(C)CC1)[C@@H](C)c1ccc(NC(=O)[C@@H](NC(=O)c2ccnn2C2CCCC2)[C@H]2CC[C@H](C)CC2)c(F)c1
Result :: 10 to 100 nM
